FYI, the data here is from patent US5055485A.

Test Protocol: Hydrolysis in aqueous medium
Assay type: physicochemical
Conditions Used: iscove's medium 10% fbs; Iscove's medium containing 10% fetal bovine serum
Value Kind: half-life

Ask: What measured half-life goes with O[C@H]1[C@H]2O[C@H]2c2c(cc3ccc4cccc5ccc2c3c45)[C@@H]1O (relative stereo) [BAPDE] ?
Reply: ~30 min

----------
Test Protocol: Solubility in aqueous media / water
Type: physicochemical
Value Kind: solubility

Ask: What measured solubility goes with O[C@H]1[C@H]2O[C@H]2c2c(cc3ccc4cccc5ccc2c3c45)[C@@H]1O (relative stereo) ?
Reply: 1 to 10 µM
